molecular target: Virion infectivity factor (Human immunodeficiency virus type 1 group M subtype B (isolate BH10)) + Virion infectivity factor (Human immunodeficiency virus type 1 group M subtype B (isolate BRU/LAI)) + Virion infectivity factor (Human immunodeficiency virus type 1 group M subtype B (isolate PCV12)) + Virion infectivity factor (Human immunodeficiency virus type 1 group M subtype B (isolate HXB2)) + DNA dC->dU-editing enzyme APOBEC-3G (Homo sapiens) (UniProt P69720+P69721+P69722+P69723+Q9HC16); experiment: inhibitors of Vif binding to APOBEC3G peptide, primary screen, biochemical, TR-FRET, GST-Vif 1-94, biotin-A3G peptide, dose response retest (AID 1117319); settings: stronger effect = higher value;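 further: Vif residues 1-94 fused to GST binding biotinylated APOBEC3G peptide 110-148; 0% = full assay without inhibitor and 100% = GST in place of GST-Vif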
Among all 260,000 compounds or so, about 1,500 (0.58%) were called active. Roughly 5% stayed inconclusive and do not appear here. These entries were drawn from the full list. Measured potencies and affinities stand elsewhere.
Each entry below carries its recorded inhibition.

The following compounds have reported results that may help.
1. Cc1ccc(CC2S/C(=N/N=C/c3ccco3)NC2=O)cc1 (stereo unspecified) = 4.38% (inactive)
2. CCOC(=O)C1=C(C)N(c2ccc(OCC)cc2)C(=O)/C1=C\c1ccco1 = 10.7% (inactive)
3. CCc1ccc(N2C(=O)C3ON(c4ccccc4)C(c4ccco4)C3C2=O)cc1 (stereo unspecified) = -3.31% (inactive)
4. Cc1cn([C@H]2C[C@H](O)[C@@H](CNCc3ccc(F)c(N4CCOCC4)c3)O2)c(=O)[nH]c1=O = -0.24% (inactive)
5. Cc1n[nH]c(=O)n1-c1ccc(C(C)C)cc1 = -7.48% (inactive)

Problem: Give inhibition for the following compound: CC(C)c1ccc(CN(C(=O)/C=C/c2ccco2)C2CCS(=O)(=O)C2)cc1 (stereo unspecified)
Result: 30.9% (inactive)

Problem: Indicate its recorded inhibition; the compound in question is O=C1NC(=O)C(=CC=Cc2ccccc2)S1
Result: 2.69% (inactive)

Problem: Find the measured inhibition of CCCN1C(=O)/C(=C/c2ccc(C)o2)SC1=Nc1ccc(OC)cc1 and report it.
Result: 23.9% (inactive)

###

target: Virion infectivity factor (Human immunodeficiency virus type 1 group M subtype B (isolate BH10)) + Virion infectivity factor (Human immunodeficiency virus type 1 group M subtype B (isolate BRU/LAI)) + Virion infectivity factor (Human immunodeficiency virus type 1 group M subtype B (isolate PCV12)) + Virion infectivity factor (Human immunodeficiency virus type 1 group M subtype B (isolate HXB2)) + DNA dC->dU-editing enzyme APOBEC-3G (Homo sapiens) (UniProt P69720+P69721+P69722+P69723+Q9HC16); assay: inhibitors of Vif binding to APOBEC3G peptide, primary screen, biochemical, TR-FRET, GST-Vif 1-94, biotin-A3G peptide, dose response retest (AID 1117319); conditions: stronger effect = higher value;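 further: Vif residues 1-94 fused to GST binding biotinylated APOBEC3G peptide 110-148; 0% = full assay without inhibitor and 100% = GST in place of GST-Vif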
Hit rate of the full screen: of about 260,000 compounds, about 1,500 (0.58%) were called active. Another 5% or so got no clear call; they are omitted. Only a sample is shown. Results with a measured potency or affinity are listed apart.
Catalogue of compounds with associated inhibition
Express the result in % but write the number alone.

1) CN(C(=O)COC(=O)c1ccc(Cl)cc1N)C1CCS(=O)(=O)C1 (stereo unspecified) = -4.2
2) CCNc1nc(NC(C)(C)C)nc(SCC(N)=O)n1 = -9.57

Problem: For the compound CCOC(=O)C1=C(COC(=O)c2ccc(Cl)nc2)NC(=O)NC1C (stereo unspecified) , give its measured inhibition value.
Result: 5.43

Problem: Fill in reported inhibition for this entry: Oc1cccc2cc3cccc(O)c3c(O)c12
Result: -5.93

Problem: Let me know recorded inhibition for Fc1ccccc1/C=C/c1ccc2ccccc2n1 , thanks.
Result: 1.57

Problem: Dear colleague, please send me the reported inhibition for C(=C\c1ccc2ccccc2n1)/c1ccccc1 when you can.
Result: 10.9

Origin of the recorded values: PubChem BioAssay AID1117319
